Assay: Cytotoxicity (PCSK9 Secretion Cell Health HepG2)
Format: cell-based
Settings: human, HepG2 cells; read-out: IC50-B cytotoxicity
Excerpt: PCSK9 expression is actively regulated at transcription levels. Statins are known to stimulate PCSK9 transcription which in turn curbs the efficacy of statins in LDL lowering in humans. […] A number of primary and secondary assays to measure PCSK9 secretion/modulation in response to putative active agents are known. Primary assays: PCSK9 Secretion HepG2 SP/CRC (% Inhibition/IC50); PCSK9 Secretion Cell Health HepG2 SP/CRC (% Inhibition/IC50); and Metabolic Luciferase Reporter Assay CRC (IC50). […]
Exercise: state measured IC50 for each of the compounds provided.

Reported IC50 for COc1ccc(C2C[C@@H]2c2c(C)c3ccccc3n2S(=O)(=O)c2ccc(C)cc2)cc1 (stereo in doubt) was > 50 µM

The compound listed as `Cc1ccc(S(=O)(=O)n2c([C@H]3C[C@H]3c3ccc4c(c3)OCO4)c(C)c3ccccc32)cc1` shows IC50 equal to > 50 µM

CCc1c(C2CC2c2ccc(OC)cc2)n(S(=O)(=O)c2ccc(C)cc2)c2ccccc12 (stereo not drawn) [10g] has a reported IC50 of > 50 µM
